assay: chemical genetic growth profiling, strain panel (AID 1159580);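 note: tested at 20 µM; growth read once vehicle control cultures reached saturation at 30 °C; 1 = growth at the plate median or of vehicle wells; lower values mean less growth of the strain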; conditions: S. cerevisiae deletion strains, growth OD, locus YCL016C, strain dcc1, hits give low values
About 2,000 (36%) of roughly 5,500 compounds were called active. Not shown: some 18% with an inconclusive outcome. The list shows a part of the results.
Listed here: items and their measured normalized growth.
measured-attribute: normalized growth

1) CCCCOC(=O)c1ccccc1C(=O)OCCCC; 0.985
2) CCCCN(CCCC)CCCOC(=O)c1ccc(N)cc1; 0.99
3) CCCOc1ccc(C(=O)OCCN(CC)CC)cc1N; 1
4) CC(C)NCC(O)c1cc(O)cc(O)c1 (configuration not stated); 0.976
5) NS(=O)(=O)c1cc2c(cc1Cl)NC(C(Cl)Cl)NS2(=O)=O (configuration not stated); 0.967
6) COc1ccc2c(c1OC)C(=O)OC2[C@H]1c2c(cc3c(c2OC)OCO3)CCN1C (some centres not stated); 1.02
7) CCCCCCOc1ccccc1C(N)=O; 0.874
8) CC(=O)N[C@@H](CS)C(=O)O; 0.998
9) COc1ccc2c(c1)O[C@H]1c3ccc(OC)cc3OC[C@@H]21; 1.03
10) COc1ccc([C@H]2Oc3cc(OC)cc(OC)c3C[C@H]2O)cc1; 1
11) CCN(CC)CCOC(=O)c1ccc(N)cc1; 0.963
12) COc1cc([C@@H]2c3cc4c(c(O)c3C[C@H]3COC(=O)[C@@H]32)OCO4)cc(OC)c1OC; 1

* * *

Listed here: items and their measured normalized growth.
test: chemical genetic growth profiling, strain panel (AID 1159580);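 note: tested at 20 µM; growth read once vehicle control cultures reached saturation at 30 °C; 1 = growth at the plate median or of vehicle wells; lower values mean less growth of the strain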; conditions: S. cerevisiae deletion strains, growth OD, locus YDL192W, strain arf1, hits give low values
Out of some 5,500 compounds screened, about 2,000 (36%) were called active. Roughly 18% stayed inconclusive and do not appear here. This is one part of the list.
measured-attribute: normalized growth

1. CCCC(=O)O[C@]1(C(=O)CO)CCC2[C@@H]3CCC4=CC(=O)CC[C@]4(C)C3[C@@H](O)C[C@@]21C (stereo partly specified); 0.98
2. C=C1CCC2C(CC2(C)C)C(=O)CCC1O (stereo unspecified); 0.992
3. C=C1CCC(C2CC(=O)OC2=O)C(=O)CCC2C1CC2(C)C (stereo unspecified); 1.01
4. CC1(C)O[C@H]2[C@H](O)C[C@](O)(C(N)=O)C[C@H]2O1; 1.05
5. C/C1=C\CCC(=O)C2CC(C)(C)C2CC1 (stereo unspecified); 1.01
6. Nc1ccn(C2O[C@H](CO)[C@@H](O)[C@@H]2O)c(=O)n1 (stereo partly specified); 0.998
7. C=C1CCC(=O)C(C)CCC2C1CC2(C)C (stereo unspecified); 0.972
8. C=CCSCC1Nc2cc(Cl)c(S(N)(=O)=O)cc2S(=O)(=O)N1 (stereo unspecified); 1.02
9. CC1(C)O[C@@H]2CC3C4CCC5=CC(=O)CCC5(C)C4(F)C(O)CC3(C)[C@]2(C(=O)CCl)O1 (stereo partly specified); 0.986
10. Oc1ccc2c(c1)OCC1c3cc4c(cc3OC21)OCO4 (stereo unspecified); 0.944
11. O=C(Cn1ccnc1[N+](=O)[O-])NCCO; 1.01

* * *

test: chemical genetic growth profiling, strain panel (AID 1159580);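 note: tested at 20 µM; growth read once vehicle control cultures reached saturation at 30 °C; 1 = growth at the plate median or of vehicle wells; lower values mean less growth of the strain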; settings: S. cerevisiae deletion strains, growth OD, locus YNL183C, strain NPR1
In all, about 5,500 compounds went through this assay and about 2,000 (36%) were called active. Another 18% or so got no clear call; they are omitted. Rule as the data show it: active = normalized growth mostly below about 0.91 (no sharp cut-off); inconclusive = no clear call, values can overlap the other calls; inactive = mostly above about 0.92. Some of the results follow.
Classes used: active, inactive

1) O=C1OC(c2ccc(O)cc2)(c2ccc(O)cc2)c2ccccc21; inactive
2) COC(=O)C1=CCCN(C)C1; inactive
3) OCc1ccccc1O; inactive
4) C=C1CCC2C(CC2(C)C)C(=O)CCC1O (stereo not drawn); inactive
5) Oc1ccc(Cl)cc1; inactive
6) Cc1ccc(NS(=O)(=O)c2ccc(-c3csc(C)n3)s2)c(C)c1; inactive
7) C=C1C(=O)O[C@@H]2C3O[C@]3(C)CC/C=C(\C)CC[C@@H]12 (stereo partly drawn); inactive
8) Oc1ccc(Cl)cc1Cc1cc(Cl)ccc1O; active
9) COc1ccc(CCN2CCC(Nc3nc4ccccc4n3Cc3ccc(F)cc3)CC2)cc1; inactive
10) Cc1nc(-c2ccc(S(=O)(=O)Nc3ccc(Br)cc3Cl)s2)cs1; inactive
11) C=C1CCC(C2CC(=O)OC2=O)C(=O)CCC2C1CC2(C)C (stereo not drawn); inactive
12) O=c1cc[nH]c(=S)[nH]1; inactive
13) Cc1c(C(=S)Nc2ccccc2)sc2ccccc12; inactive

Every entry's value here was drawn from PubChem BioAssay AID1159580.
